Data provenance is patent US7999132B2.

System: MMP-13
Test: MMP-13 Production Inhibition Test
Format: cell-based, human
Conditions: Homo sapiens; 30 μmol/L; SW1353 cells stimulated with IL-1β 10 ng/mL; MMP-13 in culture supernatant by ELISA 16 hours after stimulation; read-out: Inhibition rate (%) at 30 μmol/L
Experimental: MMP-13 Production Inhibition Test 6.8×10^3 human cartilage derived cell line SW1353 cells were suspended in 100 μL of Dulbecco modified Eagle's medium supplemented with 10% fetal calf serum, plated on 96-well plates and cultured for 3 days. […] 16 hours after the stimulation, supernatant was collected and the amount of MMP-13 in the culture supernatant was determined with an ELISA kit (Amersham). […]
Here the recorded inhibition at 30 µM is given for each entry.

Compound: O=C(Nc1cc(Oc2ccccc2)ccc1C(=O)O)c1nc2ccccc2s1 [Example 97]
inhibition at 30 µM (%): 97
//
Compound: O=C(Nc1cc(-c2cccc(Cl)c2)ccc1C(=O)O)c1ccc2c(c1)OCO2 [Example 163]
inhibition at 30 µM (%): 98
//
Compound: Cc1cccc(C)c1Oc1ccc(C(=O)O)c(NC(=O)c2ccccc2)c1 [Example 564]
inhibition at 30 µM (%): 97
//
Compound: O=C(O)c1ccc(-c2ccccc2)cc1NC(=O)c1ccc(C(F)(F)F)cc1C(F)(F)F [Example 318]
inhibition at 30 µM (%): 95
//
Compound: O=C(Nc1cc(-c2ccc3c(c2)OCCO3)ccc1C(=O)O)c1ccccc1 [Example 15]
inhibition at 30 µM (%): 88
//
Compound: O=C(Nc1cc(CCc2ccc(OC(F)(F)F)cc2)ccc1C(=O)O)c1ccccc1 [Example 138]
inhibition at 30 µM (%): 95
//
Compound: O=C(Nc1cc(Oc2ccccc2)ccc1C(=O)O)c1ccc(-n2cccc2)nc1 [Example 499]
inhibition at 30 µM (%): 99
//
Compound: O=C(Nc1cc(-c2c(F)cccc2Cl)ccc1C(=O)O)c1ccccc1 [Example 251]
inhibition at 30 µM (%): 83
//
Compound: Cc1cccc(Oc2ccc(C(=O)O)c(NC(=O)c3ccccc3)c2)c1C [Example 541]
inhibition at 30 µM (%): 97
